Could you please report measured solubility at 48 h for the items listed next?
Assay: Solubility of the compound in 0.1 M phosphate buffer after 48 hrs by spectrophotometer analysis
Format: physicochemical
Square brackets hold non-standard residues; d marks the D form. Peptide text beside a SMILES is read from it. * marks the point of attachment. Dha = C=C(N)C(=O)O; X1 = O=C(c1cscn1)*
Just the number in µg/mL, nothing appended.

# compound Cc1oc2nc1C(=O)N[C@@H](CC(N)=O)c1nc(cs1)C(=O)N[C@@H](Cc1ccccc1)c1nc(cs1)C(=O)N[C@@H](Cc1ccc(O)cc1)C(=O)N1CCC[C@H]1c1nc(cs1)-c1nc(cs1)-c1nc(-c3nc(C(=O)O)cs3)ccc1-2 ; its solubility at 48 h = 23

For this compound ( Cc1oc2nc1C(=O)N[C@@H](CC(N)=O)c1nc(cs1)C(=O)N[C@@H](Cc1ccccc1)c1nc(cs1)C(=O)N[C@@H](Cc1ccc(O)cc1)C(=O)N1CCC[C@H]1c1nc(cs1)-c1nc(cs1)-c1nc(-c3nc(C(=O)N[C@H]4CC[C@H](C(=O)O)CC4)cs3)ccc1-2 ), measured solubility at 48 h is 18

What the record says about C=C(NC(=O)C(=C)NC(=O)[C@@H]1CCCN1C(=O)[C@H](C)NC(=O)C(=C)NC(=O)c1cscn1)C(N)=O (X1-[Dha]AP[Dha][Dha]-NH2) : solubility at 48 h is 6650

// solubility at 48 h lookup, compound = Cc1oc2nc1C(=O)N[C@@H](CC(N)=O)c1nc(cs1)C(=O)N[C@@H](Cc1ccccc1)c1nc(cs1)C(=O)N[C@@H](Cc1ccc(O)cc1)C(=O)N1CCC[C@H]1c1nc(cs1)-c1nc(cs1)-c1nc(-c3nc(C(N)=O)cs3)ccc1-2 , result: 7
